# System: L6
# test: Cytotoxicity against rat L6 cells after 72 hrs by Alamar blue assay
# Format: cell-based
# condition_context: L6, 72 h, read-out: IC50
What IC50 was measured for each of the following?
One number for each entry, in µM.

Dear colleague, could you please provide IC50 for the compounds listed below?
1. CC(C)=CCc1cc(O)cc2c1OC(C=C(C)C)C1=C2C(=O)C2=C(NCCS2(=O)=O)C1=O (stereo not drawn)
2. CC(C)=CCC/C(C)=C/CC/C(C)=C/C1Oc2c(cc(O)c3c2-c2cc(O)ccc2OC3/C=C(\C)CC/C=C(\C)CCC=C(C)C)C2=C1C(=O)C=CC2=O (stereo not drawn)
3. CC(C)=CCc1cc2c(cc1O)C1=C(C(=O)C3=C(NCCS3(=O)=O)C1=O)C(C=C(C)C)O2 (stereo not drawn)
4. COC1=CC(=O)C2=C(C1=O)c1cc(O)ccc1OC2/C=C(\C)CC/C=C(\C)CCC=C(C)C (stereo not drawn)
5. CC(C)=CCC/C(C)=C/CC/C(C)=C/Cc1cc2c(cc1O)C1=C(C(=O)C3=C(C1=O)S(=O)(=O)CCN3)C(/C=C(\C)CC/C=C(\C)CCC=C(C)C)O2 (stereo not drawn)
6. CC(C)=CCC/C(C)=C/CC/C(C)=C/Cc1cc(O)cc2c1OC(/C=C(\C)CC/C=C(\C)CCC=C(C)C)C1=C2C(=O)C2=C(NCCS2(=O)=O)C1=O (stereo not drawn)

1. 4.2
2. 53.2
3. 5.2
4. 34.3
5. 126
6. 16.7

Dear colleague, could you please provide IC50 for the compounds listed below?
1. CC(C)=CCC/C(C)=C/CC/C(C)=C/C1Oc2ccc(O)cc2C2=C1C(=O)C=CC2=O (stereo not drawn)
2. CC(C)=CCC/C(C)=C/CC/C(C)=C/Cc1cc(O)cc2c1OC(/C=C(\C)CC/C=C(\C)CCC=C(C)C)C1=C2C(=O)C2=C(C1=O)S(=O)(=O)CCN2 (stereo not drawn)

1. 23.5
2. 30.6

* * *

# test: Inhibition of Trypanosoma brucei recombinant farnesyltransferase using dansyl peptide containing GCAIM as substrate in presence of farnesyl pyrophosphate after 15 mins by fluorescence assay
pIC50: −log10 of the molar value.
result_type: pIC50

Answered examples (2):
* CC(C)=CCc1cc(O)cc2c1OC(C=C(C)C)C1=C2C(=O)C2=C(C1=O)S(=O)(=O)CCN2 (stereo not drawn) | < 4.66
* CC(C)=CCc1cc2c(cc1O)C1=C(C(=O)C3=C(NCCS3(=O)=O)C1=O)C(C=C(C)C)O2 (stereo not drawn) | < 4.66

GET /value?item= COC1=CC(=O)C2=C(C1=O)c1cc(O)ccc1OC2/C=C(\C)CC/C=C(\C)CCC=C(C)C (stereo not drawn) &field=pIC50 returns < 4.65
